For each record, write down the corresponding Cmax.
Assay: Assay for oral absorbability: plasma drug concentration after oral administration to rats
Format: in vivo, SD rats
Settings: rat; fasted male SD rats, oral 3 mg/kg, plasma, LC-MS/MS; read-out: Cmax (maximum plasma drug concentration)
One number for each entry, in ng/mL.

{"Compound Smiles": "COCCOc1ccc(F)c(F)c1CN(C)c1ccc(F)c(-n2c(=O)[nH]c3csc(C(=O)O)c3c2=O)c1", "Parameter": "Cmax", "Observed Measurement": 17600}

Note: attention shifts to another entry.
[Q] Sample CN(Cc1c(F)cccc1F)c1ccc(F)c(-n2c(=O)[nH]c3csc(C(=O)O)c3c2=O)c1 — what was its Cmax?
[A] 14900

The origin of these recorded values is patent US8426427B2.
